Hi there, I'd appreciate the recorded Ki for every entry that follows.
Molecular target: Human recombinant MMP-13 (Homo sapiens, UniProt P45452)
Construct: made in house; host or cells: baculovirus / insect cells
Experiment: In vitro MMP inhibition, Ki determination (fluorogenic substrate II)
Assay type: biochemical
Details: value in parenthesis
Experimental: Several hydroxamates and salts thereof were analyzed in in vitro assays to determine their ability to inhibit the MMP cleavage of peptide substrates. Inhibition (Ki) and IC50 constants were calculated from the assayed hydroxamate-MMP interactions. […] The assays from which the Ki determinations were made were performed as follows. […] In the absence of MMP inhibitory activity, substrate II was cleaved at the Gly-Leu bond resulting in an increase of relative fluorescence. […]
Write the quantity with the unit trailing the number.

Before answering, review these 3 worked examples.
O=C(NO)C1(S(=O)(=O)c2ccc(OCCCc3cccc(-c4ccccc4Cl)c3)cc2)CCOCC1 = 0.012 µM
O=C(NO)C1(S(=O)(=O)c2ccc(OCCCc3cccc(Cc4ccccc4)c3)cc2)CCOCC1 = 0.00915 µM
O=C(NO)C1(S(=O)(=O)c2ccc(OCCCc3cccc(-c4cc(Cl)cc(Cl)c4)c3)cc2)CCOCC1 = 0.0711 µM

Requested read-out Ki, target or system Human recombinant MMP-13 (Homo sapiens, UniProt P45452), entry `O=C(NO)C1(S(=O)(=O)c2ccc(OCCCc3nc(C4CCCCC4)no3)cc2)CCN(C2CC2)CC1` 0.000976 µM

###

target: Human recombinant MMP-9 (Homo sapiens, UniProt P14780); construct: made in house; host or cells: MMP-9-transfected HT1080 cells (spent media); test: In vitro MMP inhibition, Ki determination (fluorogenic substrate II); type: biochemical; conditions: value in parenthesis
Sequence (P14780 107-707 limits assumed): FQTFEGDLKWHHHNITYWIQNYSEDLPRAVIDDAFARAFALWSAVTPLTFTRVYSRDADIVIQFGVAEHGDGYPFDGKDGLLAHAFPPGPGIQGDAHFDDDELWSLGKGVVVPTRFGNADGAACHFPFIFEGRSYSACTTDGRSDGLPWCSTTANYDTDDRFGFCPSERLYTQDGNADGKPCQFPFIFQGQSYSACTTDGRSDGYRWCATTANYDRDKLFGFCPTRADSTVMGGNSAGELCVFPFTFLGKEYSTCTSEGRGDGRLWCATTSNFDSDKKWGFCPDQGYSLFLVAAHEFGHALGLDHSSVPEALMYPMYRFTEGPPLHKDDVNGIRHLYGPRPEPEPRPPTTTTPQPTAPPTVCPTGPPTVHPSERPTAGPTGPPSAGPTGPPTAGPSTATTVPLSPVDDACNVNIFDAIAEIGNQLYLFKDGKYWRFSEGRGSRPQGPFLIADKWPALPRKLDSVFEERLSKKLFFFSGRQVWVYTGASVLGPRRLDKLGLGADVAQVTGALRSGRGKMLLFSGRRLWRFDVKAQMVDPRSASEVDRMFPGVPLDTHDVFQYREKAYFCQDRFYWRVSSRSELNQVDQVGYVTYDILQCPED
Categories are defined by ranges of Ki, namely low-valued = under 300 nM, mid-valued = from 300 nM up to 1000 nM, high-valued = 1000 nM and over

In plain terms, what class is `O=C(CCCc1ccc(S(=O)(=O)C2(C(=O)NO)CCOCC2)cc1)c1cccc(-c2ccccc2)c1` ? low-valued

Into which bin does this compound go? `CC(C)c1ccc(-c2cccc(CCCOc3ccc(S(=O)(=O)C4(C(=O)NO)CCOCC4)cc3)c2)cc1` high-valued

Given `COc1ccc(/C(C#N)=C/CCCOc2ccc(S(=O)(=O)C3(C(=O)NO)CCN(C4CC4)CC3)cc2)cc1` , name the class its Ki places it in. mid-valued

###

biological target: Human recombinant MMP-13 (Homo sapiens, UniProt P45452); construct: made in house; host or cells: baculovirus / insect cells; assay: In vitro MMP inhibition, IC50 determination (fluorogenic substrate I); type: biochemical; conditions: value outside parentheses (Ki in parenthesis)
metricName: pIC50
Numbers only, as −log10 of the molar value.

Observe how each entry below is paired with its result.
O=C(CCCOc1ccc(S(=O)(=O)C2(C(=O)NO)CCOCC2)cc1)Nc1cc2ccccc2cc1O [Example 312] = 9.70
O=C(NO)C1(S(=O)(=O)c2ccc(OCCCc3nnc(-c4ccc5ccccc5c4)o3)cc2)CCOCC1 [Example 304] = 9.70

Now for another entry.
State the recorded pIC50 for this entry: COc1ccc(C(=O)NCC(C)(C)COc2ccc(S(=O)(=O)C3(C(=O)NO)CCOCC3)cc2)cc1 [Example 392] 7.40

###

I'd be grateful if you could share measured pIC50 for these entries.
biological target: Human recombinant MMP-13 (Homo sapiens); construct: made in house; host or cells: baculovirus / insect cells; assay: In vitro MMP inhibition, IC50 determination (fluorogenic substrate I); assay type: biochemical; conditions: value outside parenthesis
Give bare numbers, as −log10 of the molar value.

Each molecule below has a recorded value; state its pIC50.
1. O=C(CCCOc1ccc(S(=O)(=O)C2(C(=O)NO)CCOCC2)cc1)Nc1ccc(OC(F)(F)F)cc1 [Example 228]
2. COc1ccc(-c2cccc(CCOc3ccc(S(=O)(=O)C4(C(=O)NO)CCOCC4)cc3)c2)cc1C

[9.70, 7.74]
